biological target: type B insulin receptor (IR-B) (Homo sapiens); construct: expressed in transfected cells; host or cells: HEK293; test: Receptor kinase activity (phosphorylation) assay, type B insulin receptor; format: cell-based; conditions: Table 12
Ends that are not written are not given here.
MEASUREMENT KIND: % Insulin Activity IR-B (%)
The reply should contain only the number, in %.

B2, A14-PEG10K di-PEGylated MIU-35 (GPEHLCGAELVDALYLVCGDRGFYGYGSSSRKAPQTGIVDECCFRSCDLK(PEG 10 kDa)RLENYCN; not fully specified (N-terminus); ends and bridges not checked; also: PEG10K at B2) [MIU-69]
0.5
B2, B22-PEG10K di-PEGylated MIU-35 (GPEHLCGAELVDALYLVCGDK(PEG 10 kDa)GFYGYGSSSRKAPQTGIVDECCFRSCDLRRLENYCN; not fully specified (N-terminus); ends and bridges not checked; also: PEG10K at B2) [MIU-68]
0.1
B2, C8-PEG10K di-PEGylated MIU-35 (GPEHLCGAELVDALYLVCGDRGFYGYGSSSRK(PEG 10 kDa)APQTGIVDECCFRSCDLRRLENYCN; not fully specified (N-terminus); ends and bridges not checked; also: PEG10K at B2) [MIU-67]
0.1

Sure, the documented % Insulin Activity IR-B for B1-PEG20K MIU-35 (GPEHLCGAHLVDALYLVCGDRGFYGYGSSSRRAPQTGIVDECCHRSCDLRRLENYCN; not fully specified (N-terminus); ends and bridges not checked; also: PEG20K at B1) [#39] is 1.1
